Give measured Ki for each item. Keep answers brief.
# study-target: heteromeric nAChRs containing alpha and beta subunits (αβ; alpha4 beta2 predominant) (Rattus norvegicus, UniProt P09483+P12390)
# measurement-parameters: read-out: αβ [3H]Epibatidine (Ki)
Please respond with the number in nM and leave the unit unwritten.

Fc1ncc(C2CC3CCC2N3)cc1-c1ccncc1 (centres unmarked) yielded Ki of 0.12

Fc1ncc(C2CC3CCC2N3)cc1-c1ccc(Cl)nc1 (centres unmarked) yielded Ki of 0.063

COc1ccc(-c2cc(C3CC4CCC3N4)cnc2F)cn1 (centres unmarked) yielded Ki of 0.13

Fc1cc(-c2cc(C3CC4CCC3N4)cnc2F)ccn1 (centres unmarked) yielded Ki of 0.067

Nc1cc(-c2cc(C3CC4CCC3N4)cnc2F)ccn1 (centres unmarked) yielded Ki of 0.13

These measurements were taken from patent US9284322B2.
